Test system: L. major amasitigote 5-ASKH substrain
Experimental details: In vitro activity against intramacrophage amastigotes, 5-ASKH
Type: cell-based
Setup conditions: Leishmania major, Macrophage; amastigote 5-ASKH in macrophages, 24 h
Method: Briefly, female BALB/c mice (6 to 8 weeks old) received 1 mL sterile of 3% sodium thioglycolate by intraperitoneal route (i.p.) and were euthanized after 4 days. The intraperitoneal lavage was collected from the peritoneal cavity of mice using sterile PBS and cells were counted in a hemocytometer. […] The number of amastigotes in 100 macrophages was determined by counting using optical microscope (100x objective). […]
pIC50: −log10 of the molar value.
Listing of recorded pIC50 by entry.
Measured parameter: pIC50

compound="O=C(N/N=C/c1ccc([N+](=O)[O-])o1)NNC(=O)c1ccc(Cl)cc1 [LASSBio-1491]" obs_value=5.14
compound="N=C(N)c1ccc(OCCCCCOc2ccc(C(=N)N)cc2)cc1 [Pentamidine, reference compound]" obs_value=4.77

###

Experimental details: PAMPA-GIT permeability
Setup conditions: GIT-PAMPA, absorbed fraction
Measured parameter: Fa experimental

compound="O=C(N/N=C/c1ccc([N+](=O)[O-])o1)NNC(=O)c1ccc(Cl)cc1 [LASSBio-1491]" measured_parameter="Fa experimental" obs_value=78.8%
compound="CNC(=C[N+](=O)[O-])NCCSCc1ccc(CN(C)C)o1 [Ranitidine]" measured_parameter="Fa experimental" obs_value=38.29%
compound="CO/N=C(\\C(=O)N[C@@H]1C(=O)N2C(C(=O)O)=C(CSc3nc(=O)c(=O)[nH]n3C)CS[C@H]12)c1csc(N)n1 [Ceftriaxone]" measured_parameter="Fa experimental" obs_value=1.37%
compound="CC(C)NCC(O)COc1ccc(CC(N)=O)cc1 (stereo not drawn) [Atenolol]" measured_parameter="Fa experimental" obs_value=2.26%
compound="O=C(O)Cc1ccccc1Nc1c(Cl)cccc1Cl [Diclofenac]" measured_parameter="Fa experimental" obs_value=99.28%
compound="Nc1nc2c(ncn2COCCO)c(=O)[nH]1 [Acyclovir]" measured_parameter="Fa experimental" obs_value=1.70%

###

System: spleen cells
Experimental details: Cytotoxicity against spleen cells (propidium iodide)
Setup conditions: Mus musculus, 24 h
Measured parameter: IC50

compound=O=C(N/N=C/c1ccc([N+](=O)[O-])o1)NNC(=O)c1ccc(Cl)cc1 obs_value="> 100 µM"
compound="N=C(N)c1ccc(OCCCCCOc2ccc(C(=N)N)cc2)cc1 [Pentamidine, reference compound]" obs_value="> 100 µM"

###

Experimental details: Microsomal metabolism
Assay type: in vitro ADME
Setup conditions: pH 7.4; rat liver microsomes, with co-factor; Volume x (0,693/t1/2)
microsomal CLint at 5 μM listing for selected compounds.
Measured parameter: microsomal CLint at 5 μM

structure_notation=O=C(N/N=C/c1ccc([N+](=O)[O-])o1)NNC(=O)c1ccc(Cl)cc1 obs_value="1.07 µL/min/mg"
structure_notation=O=C(N/N=C/c1ccc(C(F)(F)F)cc1)NNC(=O)c1ccc(Cl)cc1Cl obs_value="0.825 µL/min/mg"

###

Experimental details: PAMPA-BBB permeability
Setup conditions: PAMPA
Measured parameter: Papp (×10⁻⁶ cm/s)

compound="Cn1c(=O)c2c(ncn2C)n(C)c1=O [Caffeine, reference compound]" measured_parameter=Papp u="×10⁻⁶ cm/s" obs_value=0.81
compound="O=C(N/N=C/c1ccc([N+](=O)[O-])o1)NNC(=O)c1ccc(Cl)cc1 [LASSBio-1491]" measured_parameter=Papp u="×10⁻⁶ cm/s" obs_value=2.96
compound="O=C(N/N=C/c1ccc(C(F)(F)F)cc1)NNC(=O)c1ccc(Cl)cc1Cl [LASSBio-1736]" measured_parameter=Papp u="×10⁻⁶ cm/s" obs_value=10.6
